- Assay protocol: AUC (0 to inf) in CD1 mouse at 5.1 mg/kg, po by LC-MS/MS analysis
- Type: ADME, organism-based
- Parameters: time infinity, dose 5.1 mg/kg, route po
- Test context: in vivo
Value kind: AUC(0-inf) (µg·h/mL)
Could you give me the number in µg·h/mL? Just the number is fine.

query: Entry `CCNC(=O)c1cc(OC)c2c(c1)nc(-c1ccc(N3[C@@H](C)CC[C@@H]3C)nc1)n2C[C@@H]1CN(C)CCO1` has what AUC(0-inf)?
result: 1.72

====

- Assay protocol: Clearance in Han Wistar rat at 1.9 mg/kg, iv by LC-MS/MS analysis
- Format: ADME, organism-based
- Test context: in vivo
Value kind: clearance (mL/min/kg)
Give the value, in units of mL/min/kg, as a plain number.

query: For the molecule `COc1cccc2nc(-c3ccc(N4[C@@H](C)CC[C@@H]4C)nc3)n(C[C@@H]3CNCCO3)c12` , what clearance is on record?
result: 35
